Collected TGI values appear next to each entry.
System: DLD-1 colon
Assay: NCI tumour cell line growth inhibition, 48 h

What value of TGI has been recorded for this entry: "C/C(=N\NC(=O)CC(=O)Nc1ccc(Cl)cc1)c1cc2ccccc2oc1=O"
> 100 µM

And then "Cc1cc(N(CCC#N)CCC#N)ccc1/C=C(\NC(=O)/C=C/c1ccccc1)NC(=O)Nc1ccc(Cl)cc1" , what is it?
> 100 µM

Then what about the compound "Cc1ccc(S(=O)(=O)CNC(=S)CCCC(=S)NCS(=O)(=O)c2ccc(C)cc2)cc1" ?
> 100 µM

Please answer likewise for CCOP(=O)(CC(=O)C1=C(O)C(CCCNC(=O)OC(C)(C)C)N(Cc2ccc(OC)c(OC)c2)C1=O)OCC (stereo not given)
> 100 µM

Could you do the same for Nc1nc2c(ncn2CCOC(c2ccccc2)P(=O)(O)O)c(=O)[nH]1 (stereo not given) , please?
> 100 µM

Continuing:
Quick check: TGI of "[Cl-].[Rh+3].c1ccc(-c2ccnc3c2ccc2c(-c4ccccc4)ccnc23)cc1.c1ccc(-c2ccnc3c2ccc2c(-c4ccccc4)ccnc23)cc1.c1ccc(-c2ccnc3c2ccc2c(-c4ccccc4)ccnc23)cc1" ?
> 64.4 µM

Now this one: "CCC(C(=O)[O-])C(=O)[O-].CCC(C(=O)[O-])C(=O)[O-].N.N.NCCCCCN.[Pt+4].[Pt+4]"
> 100 µM
